Form field: Hheps CL (one value per entry).
Tested on: human hepatocytes
TEST DESCRIPTION: Human Hepatocyte Stability Assay
Assay type: in vitro ADME
APPLIED CONDITIONS: comparison table, Example 12; head prints '(units)', method states L/hr/kg
The reply should contain only the number, in mL/min/kg.

Examples with their reported Hheps CL follow.
Nc1cncc(-c2cn3ccnc3c(Nc3ccc(N4CCN(CC(CO)CO)CC4)cc3)n2)n1 [Ex.-6]    1.3
Cc1c(-c2cncc(N)n2)nc(Nc2ccc(N3CCN(C4COC4)CC3)cc2)c2nccn12 [Ex.-4]    1.3

Supply reported Hheps CL belonging to this compound: COc1ccc(Nc2nc(-c3ccc(N)nc3)cn3ccnc23)cc1OC [reference compound]
15

* * *

System: human hepatocytes
TEST DESCRIPTION: Human Hepatocyte Stability Assay
Type: in vitro ADME
APPLIED CONDITIONS: comparison table, Example 12; head prints '(units)', method states L/hr/kg
// returns rule not met unless Hheps CL is strictly below 2 mL/min/kg, in which case rule met

Nc1cncc(-c2cn3ccnc3c(Nc3ccc(N4CCN(C5COC5)CC4)cc3)n2)n1 [Ex.-2]    rule met
Nc1cncc(-c2cn3ccnc3c(Nc3ccc(N4CCO[C@@H](CO)C4)cc3)n2)n1 [Ex.-3]    rule met
Cc1ncc(-c2cn3ccnc3c(Nc3ccc(N4CCOCC4)cc3)n2)cc1N [reference compound]    rule not met
COc1ccc(Nc2nc(-c3cccc(N)c3)cn3ccnc23)cc1OC [reference compound]    rule not met
Nc1cncc(-c2cn3ccnc3c(Nc3ccc(N4CCN(C5COC5)CC4)c(OCCO)c3)n2)n1 [Ex.-5]    rule met

# TODO verify Hheps CL < 2 mL/min/kg strictly for this molecule: Cc1ncc(-c2cn3ccnc3c(Nc3ccc(N4CCN(C5COC5)CC4)c(OCCO)c3)n2)nc1N [Ex.-7]
rule met

# TODO verify Hheps CL < 2 mL/min/kg strictly for this molecule: Nc1cncc(-c2cn3ccnc3c(Nc3ccc(N4CCOCC4)cc3)n2)c1 [reference compound]
rule not met
